Target: Nuclear receptor subfamily 1 group I member 2 (Homo sapiens)
Assay: Human pregnane X receptor (PXR) small molecule agonists, qHTS assay (AID 1346982); note: nearly all actives have a fitted effect of over 35% in size; for activation: % is set by controls: 0 for no effect and ±100 for the full control effect
Details: PXR-Luc HepG2, CYP3A4 luciferase reporter, 24 h; series mostly up to 92.4 µM
Inconclusive results are not listed. Activity calls are given as the source filed them. Calls come from the whole dose curve; as a rule, active = well fitted activation curve with a large enough effect in the repeat runs; inconclusive = weak or mixed curves; inactive = no such curve, though single readings can be large or run the other way.
// classify into active, inactive

CCCCCCCCCCCCN1CCOCC1 :: inactive
CCOc1ccccc1O :: inactive
CC(C)=CCC[C@H](C)CCO :: inactive
O=[N+]([O-])c1ccc(Cl)cc1Cl :: inactive
CC/C=C\CCO :: inactive

What was the test verdict on O=C(Cl)c1cc(Cl)cc(Cl)c1 ? inactive

What did this assay record as the result for C=Cc1ccc(C=C)cc1 ? inactive

---

Molecular target: Bile acid receptor (Homo sapiens) (UniProt Q96RI1)
Sequence (Q96RI1 whole entry, looked up): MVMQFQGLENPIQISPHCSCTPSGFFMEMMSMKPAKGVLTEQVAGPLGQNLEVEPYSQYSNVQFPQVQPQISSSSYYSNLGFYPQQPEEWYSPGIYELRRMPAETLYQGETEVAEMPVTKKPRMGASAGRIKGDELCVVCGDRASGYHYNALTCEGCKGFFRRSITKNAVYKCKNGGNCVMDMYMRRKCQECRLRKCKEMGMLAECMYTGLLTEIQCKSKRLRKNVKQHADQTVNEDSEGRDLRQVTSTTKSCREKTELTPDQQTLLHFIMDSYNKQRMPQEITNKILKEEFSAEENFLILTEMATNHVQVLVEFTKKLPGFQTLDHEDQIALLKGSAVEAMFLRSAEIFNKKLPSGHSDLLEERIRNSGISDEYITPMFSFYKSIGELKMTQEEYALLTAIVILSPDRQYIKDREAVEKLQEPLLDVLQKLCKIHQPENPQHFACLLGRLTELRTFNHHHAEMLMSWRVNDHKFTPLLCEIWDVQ
Assay: qHTS assay to identify small molecule agonists of the farnesoid-X-receptor (FXR) signaling pathway (AID 743220); note: % is set by controls: 0 for no effect and ±100 for the full control effect
Conditions: HEK293T FXR-UAS-bla, beta-lactamase FRET ratio, 16 h; series mostly up to 62.6 µM
Records with an inconclusive call do not appear. Activity calls are given as the source filed them. The call rests on the fitted dose curve; in most records, active means well fitted activation curve with a large enough effect in the signal ratio in the repeat runs (not every such curve was filed as active); inconclusive means weak or mixed curves, or effect the other way; inactive means flat fitted curve, though single readings scatter; the % refers to the signal ratio.
ASSAY_READOUT: activation

Clc1cccc(C(c2ccc3nc[nH]c3c2)n2ccnc2)c1 (configuration not stated) :: inactive
CCCCCCCCCC(C)C=O (configuration not stated) :: inactive
O=C(O)c1ccc2cc(O)ccc2c1 :: inactive
NC(=O)c1ccccc1 :: inactive
Nc1cccc2c(=O)[nH][nH]c(=O)c12 :: inactive

Need activation of CC1(C)[C@@H]2CC[C@]3(C2)[C@@H]1C(=O)CCC3(C)C , thanks. inactive

What value of activation has been reported for the following molecule? CCCCCCCCCCCCCCCCCCCl 0.479% [at 5.95 µM] (inactive)

---

Test: qHTS assay to test for compound auto fluorescence at 590 nm (red) in HepG2 cell free culture (AID 720684); note: % is set by controls: 0 for no effect and ±100 for the full control effect
Conditions: cell-free medium autofluorescence, red 540/590 nm; series mostly up to 91.3 µM
Activity calls are given as the source filed them. Calls follow the shape of the dose curve; as a rule, active = well fitted curve in the direction sought with a large enough effect in the repeat runs; inconclusive = weak or mixed curves; inactive = flat fitted curve, though single readings scatter.
ASSAY_READOUT: fluorescence, % of Rose Bengal

These recorded examples may help you get a feel for the data.
O=c1[nH][nH]c2ccccc12 :: inactive
CCCOC(C)=O :: inactive
CCCN(C1CCN(C(=O)C2CCNCC2)CC1)[C@@H]1CCc2ccc(OC)cc2C1 :: inactive
CCOc1ccccc1O :: inactive
CCC(C)C1N=C(C)C(C)S1 (centres undefined) :: inactive
COC(=O)/C=C/C(C)=C\C=C\C(C)=C\C=C\C=C(C)\C=C\C=C(C)\C=C\C(=O)O :: inactive
COC(=O)c1cc(Cl)ccc1[N+](=O)[O-] :: inactive
CC1(C)C(=O)NC(=O)N1CO :: inactive

Query (molecule): c1ccc(CN(Cc2ccccc2)Cc2ccccc2)cc1 ; field requested: fluorescence, % of Rose Bengal inactive

State the recorded fluorescence, % of Rose Bengal for this entry: C=CC(C)CCC=C(C)C (centres undefined) inactive

May I ask what fluorescence, % of Rose Bengal has been recorded for CC(C)Cc1nccs1 ? inactive

Item under review: O=P(c1ccccc1)(c1ccccc1)c1ccccc1 . Reported fluorescence, % of Rose Bengal? inactive

---

Molecular target: Nuclear receptor subfamily 1 group I member 2 (Homo sapiens)
Assay: Human pregnane X receptor (PXR) small molecule agonists, qHTS assay (AID 1346982); note: nearly all actives have a fitted effect of over 35% in size; for activation: % is set by controls: 0 for no effect and ±100 for the full control effect
Conditions: PXR-Luc HepG2, CYP3A4 luciferase reporter, 24 h; series mostly up to 92.4 µM
Results filed as inconclusive are left out. The source made the active and inactive calls. Calls follow the shape of the dose curve; as a rule, active = well fitted activation curve with a large enough effect in the repeat runs; inconclusive = weak or mixed curves; inactive = no such curve, though single readings can be large or run the other way.
Lab note: assign the record to one of active, inactive

CC(=O)S[C@H](C(=O)N[C@H]1Cc2ccccc2[C@H]2CCC[C@@H](C(=O)O)N2C1=O)C(C)C :: inactive
CCCCCCCCCCCCSC#N :: inactive

Outcome? CCCCCC1CCC(=O)O1 (configuration not stated) inactive

How did this test come out for O=C(OCCCCCOC(=O)c1ccccc1)c1ccccc1 ? inactive

Hello, I am checking results. What call was entered for CC(=O)c1cccnc1 ? inactive

Would you mind telling me which call this test gave CCC(C(=O)O)c1ccc(N2Cc3ccccc3C2=O)cc1 (configuration not stated) ? active

Given CC1=C(C)C(=O)C(CCCCC#CCCCC#CCO)=C(C)C1=O , state the outcome it received in this test. active

Recorded test outcome, item CCc1cnc(C(=O)O)c(C(=O)O)c1 inactive

Hi, sorry to bother you, what did the test record for CCOC(OCC)OCC ? inactive

Look up the recorded call for CC(C)Cc1nccs1 in this test. inactive

# outcome recorded in this test, key = CC(CC(C#N)(c1ccccc1)C(C)C)N(C)C (configuration not stated) inactive

What outcome does the record of this test show for CC(C)CCCCCCCOC(=O)c1ccc(C(=O)OCCCCCCCC(C)C)c(C(=O)OCCCCCCCC(C)C)c1 ? active

Any idea what this test logged for CC(C)(O)C(=O)O ? inactive

Status in this test for O=c1[nH][nH]c2ccccc12 ? inactive

I would be grateful if you could indicate the recorded call for OCCc1ccncc1 . inactive

Recorded test outcome, item Nc1ccc(C(=O)Oc2ccccc2)c(O)c1 inactive

Called result for CCC(C)C1N=C(C)C(C)S1 (configuration not stated) active

Could you kindly confirm the outcome this assay logged for Cc1c(N=C=O)cccc1N=C=O ? inactive

So what was the verdict on CC1(C)[C@@H]2CC[C@]3(C2)[C@@H]1C(=O)CCC3(C)C in this test? active
